Biological target: T1, SARS-CoV-2 RBD-mFc (SARS-CoV-2, UniProt P0DTC2 319-541)
T1 construct: range 319-541
Experiment: Octet QKe BLI, 1:1 global fit
MEASUREMENT_TYPE: koff (s⁻¹)
Write down the numeric answer in s⁻¹ and omit the unit.

Use the examples below as a reference point.
# BINDER, ENDPOINT_RESULT
rows = [
    ("SA4086 (antibody, V domains shown) VH: QVQLVESGGGVVQPGRSLRLSCAASGFTFSSYAMHWVRQAPGKGLEWVAVISYDGSNKYYADSAKGRFTISRDNSKNTLYLQMNSLRAEDTAVYYCARRGHYYDSSGYLYWGHGTLITVSS VL: DIQMTQSPSSLSASVGDRVTITCRASQSISTYLSWYQQKPGKAPKLLIYAASNLQSGVPSRFSASGSGTDFTLTISSLQPEDFATYYCQQSYNTPRTFGQGTKVEIK", "4.99e-05"),
    ("SA4114 (antibody, V domains shown) VH: QVQLVESGGTLVQPGRSLRLSCAASGFTFSSYAMHWVRQAPGKGLEWVAVISYDGSNKYYADSVKGRFTISRDNSKNTLYLQMNSLRAEDTAVYYCARRGHYYDSSGFLYWGQGTLVTVSS VL: DIQMTQSPSSLSASVGDRVTITCRAGQSIDNYLNWYQQKPGKAPKLLIYAASTLHSGVPSRFSGSGSGTDFTLTISSLQPDDFATYYCQQSYSIPRTFGQGTKLEIK", "3.89e-05"),
]

Record summary for SA4118 (antibody, V domains shown) VH: QVQLVESGAEVKKPGASVRVSCKISGYIFTELSIHWVRQAPGKGLEWMGGFDPEEGKTIYAQKFQGRVTMTEDTSTDTAYMELSSLRSEDTAVYYCAKIGHLGDFWYWGQGTLITVSS VL: QSALTQPASVSGSPGQSITISCTGTTSDIGSYDYVSWYQQHPGKAPKLIIYGVTRRPSGVSNRFSGSKSGNTASLTISGLQAEDEANYYCSSCTRSSTYVFGTGTKVTVL : reported koff = 2.05e-05
